Molecular target: T1, human TIGIT protein (human, UniProt Q495A1 22-141, limits assumed)
T1 construct: Recombinant protein (Genentech) used in ELISA screening and as SPR analyte; also called TIGIT antigen
T1 sequence: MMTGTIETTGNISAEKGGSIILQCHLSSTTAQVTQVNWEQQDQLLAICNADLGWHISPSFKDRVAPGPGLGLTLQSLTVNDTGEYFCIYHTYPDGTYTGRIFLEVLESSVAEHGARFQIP
Test: SPR, captured mAb
Catalogue of kon readings, one per entry.
Metric: kon (M⁻¹ s⁻¹)

[[record]]
binder = "h7E7.L4H1 (antibody, V domains shown, VL: F87Y against h7E7.L1H1; FR/HVR pieces) VH: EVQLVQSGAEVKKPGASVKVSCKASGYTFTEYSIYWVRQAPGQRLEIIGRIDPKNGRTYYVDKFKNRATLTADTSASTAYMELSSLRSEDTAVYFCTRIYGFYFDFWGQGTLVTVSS VL: DIQLTQSPSFLSASVGDRVTITCKGSQNVNKYLVWYQQKPGKAPKLLIYNTDNLQSGIPSRFSGSGSGTEYTLTISSLQPEDFATYYCYQYNNGFTFGQGTKVEIK"
reported_measurement = "2.95e+06"

[[record]]
binder = "h10A5.L1H1 (antibody, V domains shown, Humanized; FR/HVR pieces in order; also called h1.10A5.L1H1) VH: EVTLKESGPALVKPTQTLTLTCTFSGFSLTTYGMGVSWIRQPPGKALEWLASIWWNGNTYYNPSLRSRLTVTKDTSKNQAVLTMTNMDPVDTATYYCAHTGGAVITWFAYWGQGTLVTVSS VL: EIVMTQSPATLSVSPGERATLSCKASQSVGKNIAWYQQKPGQSPRLLIYYASNRYTGVPARFSGSGSGTEFTLTISSLQSEDFAVYYCQHIYNSPYPFGQGTKVEIK"
reported_measurement = "4.57e+06"

[[record]]
binder = "rat15C8 (antibody, V domains shown, SD rat-derived; rat V domains as FR/HVR pieces; also called 1.15C8; Chimeric 1.15C8) VH: EVQLQQSGPELQRPGASVKLSCKASGYTFTEHSIYWLKQRPKQSLEIIGRIDPKNGRTYFVDKFKNRATLTTNTSSNTAYMQLSSLTSEDTAIYFCARIDGFYFDFWGQGVMVTASS VL: NIHLTQSPSLLSASVGDRVTLSCKGSQNVNKYLVWYQQKLGEAPKLLIYSTDNLQSGIPSRFSGSGSGTDYTLTISSLQPEDAATYFCYQYNNGFTFGSGTKLEIK"
reported_measurement = 522000

